Test system: MCF7
TEST: NCI tumour cell line growth inhibition, 48 h
Active and inactive are the calls of the source. Rule as the data show it: active = GI50 up to about 1.1 µM and inactive = higher.
Outcomes: True = active, False = inactive

{"COMPOUND": "CN(C)c1ccc(/C=C(\\NC(=O)c2ccccc2)C2=NC(CCC(=O)O)C(=O)O2)cc1 (centres undefined)", "ASSIGNED_CLASS": "False"}
{"COMPOUND": "O=C1CN(c2cccc(C(F)(F)F)c2)C(=O)CN1CCN1CC(=O)N(c2cccc(C(F)(F)F)c2)CC1=O", "ASSIGNED_CLASS": "False"}
{"COMPOUND": "C=CCOC(OCC=C)/C(Br)=C/C", "ASSIGNED_CLASS": "False"}
{"COMPOUND": "O=c1cc(-c2cccnc2)[nH]c2cc3c(cc12)OCO3", "ASSIGNED_CLASS": "False"}
{"COMPOUND": "CC(=O)OCC1=C(C)C[C@H]([C@@H](COC(C)=O)C2CCC3C4C[C@H]5O[C@]56CC=CC(=O)[C@]6(C)C4CC[C@@]32C)OC1=O (some centres undefined)", "ASSIGNED_CLASS": "True"}
{"COMPOUND": "COC(=O)C(C)(NC(=O)C(CC(=O)OC(C)(C)C)NC(=O)OC(C)(C)C)c1ccccc1 (centres undefined)", "ASSIGNED_CLASS": "False"}
{"COMPOUND": "COc1ccc2nc3cc([N+](=O)[O-])ccc3c(Nc3ccc(S(=O)(=O)NC(C)=O)cc3)c2c1", "ASSIGNED_CLASS": "False"}
{"COMPOUND": "N[C@H]1CCC[C@@H](O)C1O (some centres undefined)", "ASSIGNED_CLASS": "False"}
{"COMPOUND": "COC(=O)C1CC23C=CCN4CC(C2C)C2(c5ccccc5NC12)C43 (centres undefined)", "ASSIGNED_CLASS": "False"}
{"COMPOUND": "Cc1ccc(C(=O)N/N=C(\\N=N\\c2ccc([N+](=O)[O-])cc2)c2ccc(N(CCC#N)CCC#N)cc2C)cc1", "ASSIGNED_CLASS": "False"}
{"COMPOUND": "COC(=O)C(Cc1ccccc1)C(=O)NC(CNC(=O)OCc1ccccc1)C(=O)OCc1ccccc1 (centres undefined)", "ASSIGNED_CLASS": "False"}
{"COMPOUND": "CC[C@]12C=CCN3CCC4(c5cc(/N=N/c6ccc([N+](=O)[O-])cc6)c(OC)cc5N(C)[C@H]4[C@@](O)(C(=O)OC)[C@@H]1OC(C)=O)[C@@H]32 (some centres undefined)", "ASSIGNED_CLASS": "False"}
{"COMPOUND": "COC(=O)C(NC(=O)c1ccccc1)c1ccco1 (centres undefined)", "ASSIGNED_CLASS": "False"}
{"COMPOUND": "CCCCCCCCCCCC(=O)OC[C@@H](C[As](=O)(O)O)OC(=O)CCCCCCCCCCC", "ASSIGNED_CLASS": "False"}
{"COMPOUND": "O=C(O)/C(Cc1c[nH]nn1)=N\\O", "ASSIGNED_CLASS": "False"}
{"COMPOUND": "Cc1nc2ccccc2c(=O)n1/N=C(\\N=N\\c1cc(Cl)ccc1Cl)c1ccccc1", "ASSIGNED_CLASS": "False"}
{"COMPOUND": "CC1(C)C(C#N)=[N+]([O-])C(C)(C)N1O", "ASSIGNED_CLASS": "False"}
{"COMPOUND": "CSc1ccc(/C=C2\\N=C(c3ccccc3)N(c3nc4cc(C)c(C)cc4s3)C2=O)cc1", "ASSIGNED_CLASS": "False"}
{"COMPOUND": "O=C(O)CCc1ccc2c(c1)CC1(Cc3ccccc3C1)C2", "ASSIGNED_CLASS": "False"}
